Provide the reported IC50 of each item.
- System: RAW264.7
- TEST METHOD NOTES: Cytotoxicity in mouse RAW264.7 cells
- Assay type: cell-based

>  <COMPOUND>
CCCCCCC[C@@H](OC)[C@H](O)[C@H](O)C#CC#C[C@@H](O)CC

>  <RESULT>
> 40 µM

$$$$

# map each compound to its IC50
1. C=CC(O)C#CC#C[C@@H](O)/C=C\CCCCCCC (mixture of isomers)
2. CCCCCCC[C@@H]1O[C@@H]1[C@H](O)C#CC#C[C@@H](O)CC
3. CCCCCCC/C=C\[C@H](O)C#CC#C[C@@H](O)CC

(A)
["3.77 µM", "> 40 µM", "> 40 µM"]
